test: yeast display, Sf9 membrane polyspecificity reagent, FACS + sequencing; frameworks hold sequencing errors
MEASURED_ATTRIBUTE: polyreactivity (PSR sort gate)

The cases that follow already have their polyreactivity (PSR sort gate) on record.
QVHLVESGGGLVQAGGSLRLSCAASGIIFYRYAMGWYRQAPGKERELVAAISWRGTSTYYADSVKARFTISRDNANNTVYLQMNSLKPEDTEVYYCNAGVRRKYGEYYYWGQGTQVTVSS
high polyreactivity
QVQLVESGGGLVQAGGSLRLSCAASGSTFVRYTMGWYRQAPGKERELVAGITGGGSTNYADSVKGRFTISRDNAKNTVYLQMNSLKPEDTAVYYCAADLWWERAYPEYDYWGQGTQVTVSS
low polyreactivity
QVQLVESVGGLVQAGGSHRLSCAASGRTFYQYTMGWSRQAPGTERELVAAITTSTGNTYYADSVKVRFTISRDNAKNTVYLQMNRLKPADTAVYECAADTVWPLDYWGLGTQVTVSS
low polyreactivity
QVQLVESGGGLVQAGGSLRLSCAASGRTFFPYVMGWYRQAPGKERELVAAISNSGTSTYYADSVKGRFTISRDNAKNTVYLQMNSLKPEDTAVYYCAARRYVGLYYWGQGTQVTVSS
high polyreactivity

# ---- query sequence ----
For reference, reported polyreactivity (PSR sort gate) for `QVQLVVSGGGLVQAGGRLRLSCAATGSTFSVNAMGWSRQAPGKERELVAAITRSGGSTYYADSVKGRFTFSRDNAKNSVYLQLNSLKPEDTAVYYCAAEIYPLGEYWGQGTQVTVSS` stands at low polyreactivity
